Tested on: AURKC;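 note: KINOMEscan kinase panel screen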
Settings: concentration: 1 μM, replicates: in singlicate; n = 1
Each entry gets false if its %Inh stays under 20%, and true if its %Inh is 20% or above.

Take a look at these entries with their results.
>  <compound>
CN(C)CCOc1ccc(-c2cc(-c3ccc(Cl)c(O)c3)c(-c3ccncc3)[nH]2)cc1.Cl.Cl

>  <assigned.category>
false

$$$$
>  <compound>
Cc1cc(-c2c(-c3ccc(F)cc3)ncn2CCCN2CCOCC2)nc(N)n1

>  <assigned.category>
false

$$$$
>  <compound>
CNc1nccc(-c2ccc3c(N)n[nH]c3c2)n1

>  <assigned.category>
true

$$$$
>  <compound>
CC(C)c1nc(-c2ccc(F)c(NS(=O)(=O)c3c(F)cccc3F)c2)c(-c2ccnc(Nc3ccc(N4CCOCC4)nc3)n2)s1

>  <assigned.category>
true

$$$$
>  <compound>
Cc1ccccc1CC(=O)N1CCc2cc(-c3cn(C)c4ncnc(N)c34)ccc21

>  <assigned.category>
true

$$$$

Query string: Does the reported %Inh for COc1cccc2c(-c3ccncc3)c(-c3ccc(F)cc3)nn12 fall at or above the 20% mark?
Result string: false

Query string: Does the reported %Inh for CC(=O)Nc1cn2nc(Oc3cccc(NC(=O)c4cccc(C(F)(F)F)c4)c3)ccc2n1 fall at or above the 20% mark?
Result string: true

Query string: Does the reported %Inh for Cn1cc(-c2ccc3c(c2)CCN3C(=O)Cc2cc(F)cc(C(F)(F)F)c2)c2c(N)ncnc21 fall at or above the 20% mark?
Result string: true

Query string: Does the reported %Inh for Nc1ncnc2scc(-c3ccc(NC(=O)Cc4cc(F)ccc4F)cc3)c12.O=C(O)C(F)(F)F fall at or above the 20% mark?
Result string: true

Query string: Does the reported %Inh for O=C(O)C(F)(F)F.O=c1[nH]ccc2nc(N[C@@H]3CCNC3)nc(Nc3cc(Cl)cc(Cl)c3)c12 fall at or above the 20% mark?
Result string: true

Query string: Does the reported %Inh for COc1ccc(NC(=O)c2ccoc2)cc1-c1ccc(C(=O)NCC2CC2)cc1 fall at or above the 20% mark?
Result string: false

Query string: Does the reported %Inh for Fc1cc(Cl)ccc1Nc1ccnc2cc(-c3ccc(CN4CCOCC4)o3)ccc12 fall at or above the 20% mark?
Result string: true

Query string: Does the reported %Inh for O=C(Nc1n[nH]c2nc(-c3cccc(O)c3)ccc12)C1CC1 fall at or above the 20% mark?
Result string: true

Query string: Does the reported %Inh for Cc1ccc(C)c(NC(=O)Nc2ccc(C)c(-c3ccc(C(=O)Nc4ccncc4)cc3)c2)c1 fall at or above the 20% mark?
Result string: true

Query string: Does the reported %Inh for COC(=O)Nc1nc2cc(Oc3ccc(NC(=O)Nc4cccc(SC)c4)cc3)ccc2[nH]1.Cl fall at or above the 20% mark?
Result string: true

Query string: Does the reported %Inh for CC(C)(C)c1ccc(C(=O)Nc2cn3cc(-n4ccnc4)ccc3n2)cc1 fall at or above the 20% mark?
Result string: false

Query string: Does the reported %Inh for COC(=O)Nc1nc2ccc(Oc3ccc(NC(=O)Nc4cc(C(F)(F)F)ccc4F)cc3)cc2[nH]1.Cl fall at or above the 20% mark?
Result string: true

Query string: Does the reported %Inh for COc1cccc(-c2nc(-c3ccccc3)[nH]c2-c2ccncc2)c1 fall at or above the 20% mark?
Result string: false

Query string: Does the reported %Inh for NCCC(NC(=O)c1cc(Br)c(-c2ccnc3[nH]ccc23)s1)c1ccccc1.O=C(O)C(F)(F)F.O=C(O)C(F)(F)F (stereo not shown) fall at or above the 20% mark?
Result string: true

These data points were gathered from paper PMC5540273.
